Catalogue of abundance fitness readings, one per entry.
B1: Triacylglycerol hydrolase DDHD2, residues 389 to 447; numbered along this chain, O94830 (parent)
chain: TLEEDLKKLQLSEFFDIFEKEKVDKEALALCTDRDLQEIGIPLGPRKKILNYFSTRKNS

- Variants of: B1
- procedure.details: abundance fitness (aPCA) (normalised: wild type 0, dead -1); higher = more abundant; growth selection in yeast, the domain comes from the species named
- particulars: Homo sapiens

>  <variant.description>
G40I

>  <abundance fitness>
-0.839

$$$$
>  <variant.description>
K48T

>  <abundance fitness>
0.374

$$$$
>  <variant.description>
F53N

>  <abundance fitness>
-0.073

$$$$
>  <variant.description>
L50P

>  <abundance fitness>
-0.401

$$$$
>  <variant.description>
E19D

>  <abundance fitness>
0.129

$$$$
>  <variant.description>
E21R

>  <abundance fitness>
0.508

$$$$
>  <variant.description>
K47I

>  <abundance fitness>
0.193

$$$$
>  <variant.description>
N58F

>  <abundance fitness>
-0.422

$$$$
>  <variant.description>
Q10M

>  <abundance fitness>
-0.1

$$$$
>  <variant.description>
E21L

>  <abundance fitness>
0.45

$$$$
>  <variant.description>
I39N

>  <abundance fitness>
-0.249

$$$$
>  <variant.description>
S54G

>  <abundance fitness>
-0.113

$$$$
>  <variant.description>
K20T

>  <abundance fitness>
-0.104

$$$$
>  <variant.description>
Q37E

>  <abundance fitness>
0.241

$$$$
>  <variant.description>
E3W

>  <abundance fitness>
-0.16

$$$$
>  <variant.description>
R34L

>  <abundance fitness>
-0.001

$$$$
>  <variant.description>
A27Q

>  <abundance fitness>
0.475

$$$$
>  <variant.description>
S12C

>  <abundance fitness>
-0.22

$$$$
>  <variant.description>
E19M

>  <abundance fitness>
0.016

$$$$
>  <variant.description>
R34F

>  <abundance fitness>
0.174

$$$$
>  <variant.description>
F53Y

>  <abundance fitness>
-0.027

$$$$
>  <variant.description>
R34E

>  <abundance fitness>
0.463

$$$$
